- assayed target: C-X-C chemokine receptor type 1 (Homo sapiens, UniProt P25024)
- Sequence (P25024 whole entry): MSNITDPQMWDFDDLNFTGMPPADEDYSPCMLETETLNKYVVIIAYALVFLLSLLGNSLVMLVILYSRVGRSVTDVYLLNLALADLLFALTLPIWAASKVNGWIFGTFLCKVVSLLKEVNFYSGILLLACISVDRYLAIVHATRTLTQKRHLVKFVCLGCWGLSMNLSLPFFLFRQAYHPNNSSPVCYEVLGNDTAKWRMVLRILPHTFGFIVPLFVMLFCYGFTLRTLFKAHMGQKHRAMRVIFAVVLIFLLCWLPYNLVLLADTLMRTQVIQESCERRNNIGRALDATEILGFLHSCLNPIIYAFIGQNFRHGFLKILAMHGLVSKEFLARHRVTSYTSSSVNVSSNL
- measurement description: J. Immunol. 170: 2904-2911).To evaluate the direct interaction of the CXCR2 or CXCR1 receptor with β-arrestin 2, a test of β-arrestin 2 recruitment for CXCR2 or CXCR1 based on complementation of the β-galactosidase enzyme (Olson K. R., Eglen R. M., Beta-galactosidase complementation: a cell-based luminescent assay platform for drug discovery. Assay Drug Dev. Technol. 2007 February; 5(1); 137-44), as established by DiscoveRx Corporation was used. Stimulation of these two cell lines with CXCL8 (10 nM) induces the recruitment of β-arrestin 2, as indicated by a significant increase in the induction factor. All the CXCR2 antagonists are tested in a dose-dependent manner and the concentration corresponding to 50% inhibition of the response is determined (IC50=concentration of half-inhibition).β-Arrestin Recruitment Test: “PathHunter HEK293-CXCR2” or “U2OS hCXCR1 β-arrestin” cells (DiscoveRx Corporation) were seeded overnight at 10 000 cells/well (384-well format) in 20 μl of Opti MEM I medium. Preincubation with the antagonist or the vehicle for 30 minutes at 37° C. and 5% CO2 was followed by 60 minutes of stimulation with CXCL8 at 37° C. and 5% CO2. The cells were then placed at room temperature for 30 minutes. The PathHunter detection reagent (DiscoveRx Corporation) was added. After incubation for 60 minutes at room temperature, the β-galactosidase induced by the luminescence during the β-arrestin-CXCR2 interaction was measured for 0.3 s in an Envision 2102 Multilabel Reader (PerkinElmer Life and Analytical Sciences). The data are analysed via a non-linear curve procedure using the XLFit4 (IDBS) exploitation software, and the IC50 values are determined.
observation type: IC50

Recorded IC50 (molecule CC[C@@H](Nc1c(Nc2ccc(Cl)c(S(C)(=O)=NCCN(C)C)c2O)c(=O)c1=O)c1ccc(C)o1 (stereo partly specified) ): > 200 nM
